biological target: FXR (Rattus norvegicus, UniProt Q62735); assay: cell-based; conditions: 7.5 μM
Sequence (Q62735 whole entry): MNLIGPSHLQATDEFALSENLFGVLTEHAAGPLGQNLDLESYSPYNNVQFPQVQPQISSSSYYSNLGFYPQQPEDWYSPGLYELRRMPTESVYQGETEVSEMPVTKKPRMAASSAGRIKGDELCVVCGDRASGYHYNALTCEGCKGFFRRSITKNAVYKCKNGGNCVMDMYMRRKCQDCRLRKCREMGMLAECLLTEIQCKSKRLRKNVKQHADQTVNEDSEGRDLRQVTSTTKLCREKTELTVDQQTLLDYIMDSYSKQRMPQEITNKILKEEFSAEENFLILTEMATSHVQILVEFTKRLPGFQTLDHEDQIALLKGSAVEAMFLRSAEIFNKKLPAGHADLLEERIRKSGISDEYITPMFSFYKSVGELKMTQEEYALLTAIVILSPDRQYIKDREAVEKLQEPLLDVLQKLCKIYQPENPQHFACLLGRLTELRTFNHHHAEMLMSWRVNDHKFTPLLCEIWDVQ
Sequence (P28700 whole entry partner): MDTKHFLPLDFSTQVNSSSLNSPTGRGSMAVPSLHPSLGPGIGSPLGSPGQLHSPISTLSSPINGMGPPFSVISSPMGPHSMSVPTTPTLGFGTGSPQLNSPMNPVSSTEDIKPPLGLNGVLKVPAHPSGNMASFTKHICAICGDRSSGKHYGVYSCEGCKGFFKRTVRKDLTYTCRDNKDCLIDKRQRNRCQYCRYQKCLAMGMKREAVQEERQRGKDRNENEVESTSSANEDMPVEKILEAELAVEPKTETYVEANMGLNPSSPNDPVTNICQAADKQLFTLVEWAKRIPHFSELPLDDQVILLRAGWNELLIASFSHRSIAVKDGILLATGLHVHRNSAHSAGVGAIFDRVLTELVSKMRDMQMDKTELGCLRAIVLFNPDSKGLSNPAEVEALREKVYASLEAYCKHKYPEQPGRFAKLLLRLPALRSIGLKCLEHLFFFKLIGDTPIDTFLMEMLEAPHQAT
readout: FXR-dependent transcription, induction (fold)
Record the value in fold, omitting the unit from your answer.

The molecule listed as CC(C)CC[C@@H](O)[C@@H](C)[C@H]1CC[C@H]2[C@@H]3CC=C4C[C@@H](O)CC[C@]4(C)[C@H]3CC[C@]12C [22R-hydroxycholesterol, 22R-Hydroxycholesterol] has a reported FXR-dependent transcription, induction of 10

Now, please, on to the next molecule.
The molecule listed as CC(C)CCC[C@](C)(O)[C@H]1CC[C@H]2[C@@H]3CC=C4C[C@@H](O)CC[C@]4(C)[C@H]3CC[C@@]21C [20α-hydroxycholesterol] has a reported FXR-dependent transcription, induction of 10
